Ref: patent US20020026053A1

- Assayed system: Met receptor (EGFR/Met chimeric cells, EMR) (Homo sapiens, UniProt P08581)
- Construct: expressed in transfected cells; the other entry of the earlier key: EGFR (P00533, Epidermal growth factor receptor)
- Sequence (P08581 with tags, fused parts or gaps): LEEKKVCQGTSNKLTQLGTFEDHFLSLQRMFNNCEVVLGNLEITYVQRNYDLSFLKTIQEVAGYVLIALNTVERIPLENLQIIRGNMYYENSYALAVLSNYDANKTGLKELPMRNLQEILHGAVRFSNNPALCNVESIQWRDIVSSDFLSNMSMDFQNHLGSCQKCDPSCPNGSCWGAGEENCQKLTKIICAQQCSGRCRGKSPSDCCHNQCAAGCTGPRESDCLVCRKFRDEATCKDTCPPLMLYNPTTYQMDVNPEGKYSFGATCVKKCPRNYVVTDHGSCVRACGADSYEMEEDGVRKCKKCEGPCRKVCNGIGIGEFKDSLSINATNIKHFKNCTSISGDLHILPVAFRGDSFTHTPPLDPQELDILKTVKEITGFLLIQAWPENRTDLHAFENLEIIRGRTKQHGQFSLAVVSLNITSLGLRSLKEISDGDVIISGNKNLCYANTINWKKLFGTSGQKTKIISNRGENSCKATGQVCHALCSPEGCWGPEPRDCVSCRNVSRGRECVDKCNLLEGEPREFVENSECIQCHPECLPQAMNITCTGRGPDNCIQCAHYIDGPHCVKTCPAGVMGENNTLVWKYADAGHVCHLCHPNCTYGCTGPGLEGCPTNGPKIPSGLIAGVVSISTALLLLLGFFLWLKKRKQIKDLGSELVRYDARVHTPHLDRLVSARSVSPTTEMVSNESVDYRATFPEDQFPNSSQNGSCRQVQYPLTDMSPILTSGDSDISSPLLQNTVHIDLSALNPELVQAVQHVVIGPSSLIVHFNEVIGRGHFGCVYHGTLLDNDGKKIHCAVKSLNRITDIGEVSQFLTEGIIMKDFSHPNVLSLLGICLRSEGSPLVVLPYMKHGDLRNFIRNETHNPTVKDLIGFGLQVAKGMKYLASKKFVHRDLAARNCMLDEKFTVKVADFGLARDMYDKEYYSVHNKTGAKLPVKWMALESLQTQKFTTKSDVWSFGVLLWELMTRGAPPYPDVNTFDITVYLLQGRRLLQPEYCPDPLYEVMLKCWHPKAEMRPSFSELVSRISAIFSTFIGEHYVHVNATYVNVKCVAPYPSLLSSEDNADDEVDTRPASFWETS
- Assay: Met Autophosphorylation Assay; note: test concentration or dose not given here
- Type: biochemical
Endpoint: Met Kinase % Inhibition (P.130) (%)
Could you give me the number in %? Just the number is fine.

Chemical string	Unit tag	Recorded value
Cc1c(Br)cc(Br)c2c1C(=Cc1ccc(Br)s1)C(=O)N2	%	28.7
O=C1Nc2ccc(S(=O)(=O)N3CCOCC3)cc2C1=Cc1ccccc1C(F)(F)F	%	23.9
O=C1Nc2ccc(I)cc2C1=Cc1cc(Cl)cc(Cl)c1O	%	90.1
Cc1c(Br)cc(Br)c2c1C(=Cc1cccn1-c1ccc(Cl)cc1)C(=O)N2	%	4.2

The recorded Met Kinase % Inhibition (P.130) for entry Cc1c(Br)cc(Br)c2c1C(=Cc1ccc(N(C)C)cc1)C(=O)N2 equals 20.0

Met Kinase % Inhibition (P.130) in this record for Cc1c(Br)cc(Br)c2c1C(=Cc1cc(Cl)cc(Cl)c1O)C(=O)N2 : 90.3

The measured Met Kinase % Inhibition (P.130) associated with Cc1c(Br)cc(Br)c2c1C(=Cc1cccnc1)C(=O)N2 reads 44.0

// CC(C)(C)c1ccc(C=C2C(=O)Nc3ccc(I)cc32)cc1 : Met Kinase % Inhibition (P.130) value = 82.6
